Origin of measurements: paper PMC3962490

Please provide measured Kd for the entries that follow.
Molecular target: T1, Recombinant S. cerevisiae Ess1 protein (S. cerevisiae, UniProt P22696 1-170)
T1 construct: Ess1 peptidyl prolyl cis/trans isomerase, S. cerevisiae; also called purified Ess1 protein; Ess1 prolyl isomerase; source: Escherichia coli, purified as described (Li et al. 2005)
T1 sequence (looked up): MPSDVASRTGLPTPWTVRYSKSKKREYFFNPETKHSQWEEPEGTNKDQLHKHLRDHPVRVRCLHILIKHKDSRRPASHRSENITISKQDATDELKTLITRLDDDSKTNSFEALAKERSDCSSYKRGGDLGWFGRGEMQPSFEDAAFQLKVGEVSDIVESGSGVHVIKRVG
Experiment: BLI; Octet RED, 24°; N-terminally biotinylated peptides immobilised on streptavidin biosensors; Ess1 in solution (3, 10, 30 μM); 20 mM Tris-HCl pH 8.0, 1 mg/mL BSA; no-peptide sensor subtracted; apparent dissociation constants (Kapp) from kinetic and equilibrium data, considering only the predominant faster-dissociating signal; for unphosphorylated peptides Kapp estimated from the signal at 30 μM Ess1
Conditions: both partners purified
Non-standard residues stand in square brackets, D forms with d. No end group written: not given here. *: point of attachment. Biotin = O=C1N[C@H]2[C@H](CS[C@H]2CCCCC(=O)*)N1; pS = N[C@@H](COP(=O)(O)O)C(=O)O
Numbers only; they are read as µM.

input: Given the entry Biotin-GGSGGSYSPT[pS]PSYS (flexible linker ([Gly-Gly-Ser]2); based on the consensus heptapeptide repeat in the carboxy-terminal domain (CTD) of Rpb1, largest subunit of RNA polymerase II; The phosphoserine is Ser5 of the heptad YSPTSPS; also called phospho-CTD peptide; phosphorylated CTD peptide; source: synthetic peptide (NEOBioLab), HPLC purified >95%) [CTD-P peptide (phosphorylated peptide corresponding to the CTD of RNAPII)] , report its measured Kd.
output: 2.12

input: Do the same for Biotin-GGSGGFL[pS]P[pS]PRLR[pS]PPT (flexible linker; Whi5, S. cerevisiae, residues 152-164 (portion of the nuclear export signal); By the printed limits the phosphoserines are Ser154, Ser156 and Ser161; also called phosphorylated Whi5-NES peptide; Whi5 phospho-peptide; source: synthetic peptide (NEOBioLab), HPLC purified >95%) [Whi5-NES-P peptide] please
output: 2.19

input: Do the same for Biotin-GGSGGSRELG[pS]PLKK (flexible linker ([Gly-Gly-Ser]2); By the printed limits the phosphoserine is Ser160; also called phosphorylated Swi6-NLS peptide; phospho-Swi6 peptide; source: synthetic peptide (NEOBioLab), HPLC purified >95%) [Swi6-NLS-P peptide] please
output: 8.67

input: Do the same for Biotin-GGSGGTP[pS]PP[pS]PPGI (flexible linker; By the printed limits the phosphoserines are Ser59 and Ser62; also called phosphorylated Whi5-NLS peptide; Whi5 phospho-peptide; source: synthetic peptide (NEOBioLab), HPLC purified >95%) [Whi5-NLS-P peptide] please
output: 1.67
